# PROTOCOL: Volume of distribution at steady state in C57BL/6J mouse at 5 mg/kg, iv
# Type: ADME, organism-based
# CONDITION CONTEXT: in vivo, read-out: Vdss

{"CHEMICAL STRUCTURE": "N=C(N)Nc1ccc(C(=O)Oc2ccc(CC(=O)O)n3ncnc23)cc1", "Vd / L/kg": 3.68}

---

# TARGET DESC: Enteropeptidase (Homo sapiens)
# PROTOCOL: Inhibition of full length recombinant human EP expressed in CHO cells assessed as protease activity using […] as substrate at 10 uM by fluorescence assay relative to control
# Design: scale not given: the % may be the effect or the level left

{"COMPOUND": "N=C(N)Nc1ccc(C(=O)Oc2ccc(CC(=O)O)n3ncnc23)c(Cl)c1", "TARGET DESC": "Enteropeptidase (Homo sapiens)", "Activity, %": 100}
{"COMPOUND": "N=C(N)Nc1ccc(C(=O)Oc2ccc(CCC(=O)O)n3ccnc23)cc1", "TARGET DESC": "Enteropeptidase (Homo sapiens)", "Activity, %": 100}
{"COMPOUND": "N=C(N)Nc1ccc(C(=O)Oc2cc(CCC(=O)O)cn3ncnc23)cc1", "TARGET DESC": "Enteropeptidase (Homo sapiens)", "Activity, %": 101}
{"COMPOUND": "N=C(N)Nc1ccc(C(=O)Oc2ccc(CC(=O)N(CC(=O)O)CC(=O)O)n3ncnc23)cc1", "TARGET DESC": "Enteropeptidase (Homo sapiens)", "Activity, %": 101}
{"COMPOUND": "O=C(O)Cc1ccc(OC(=O)c2ccc(NC3=NCCN3)cc2)c2ncnn12", "TARGET DESC": "Enteropeptidase (Homo sapiens)", "Activity, %": -2.75}
{"COMPOUND": "N=C(N)Nc1ccc(C(=O)Oc2ccc(CC(=O)O)n3ccnc23)cc1", "TARGET DESC": "Enteropeptidase (Homo sapiens)", "Activity, %": 100}
{"COMPOUND": "N=C(N)Nc1ccc(C(=O)Oc2ccc(C3OC(=O)NC3=O)n3ncnc23)cc1 (stereo not given)", "TARGET DESC": "Enteropeptidase (Homo sapiens)", "Activity, %": 100}
{"COMPOUND": "CNC(=N)c1ccc(C(=O)Oc2ccc(CC(=O)O)n3ncnc23)cc1", "TARGET DESC": "Enteropeptidase (Homo sapiens)", "Activity, %": 52.3}
{"COMPOUND": "N=C1NCCN1c1ccc(C(=O)Oc2ccc(CC(=O)O)n3ncnc23)cc1", "TARGET DESC": "Enteropeptidase (Homo sapiens)", "Activity, %": 93.2}
{"COMPOUND": "CONC(=N)c1ccc(C(=O)Oc2ccc(CC(=O)O)n3ncnc23)cc1", "TARGET DESC": "Enteropeptidase (Homo sapiens)", "Activity, %": 34}
